For each record, write down the corresponding HDAC6 Selectivity (fold).
# study-system: human recombinant HDAC6 (Homo sapiens, UniProt Q9UBN7)
# Construct: purchased Calbiochem Inc. 382180
# experimental-protocol: In vitro HDAC enzyme activity inhibition assay, HDAC6 (HDAC Fluorimetric Drug Discovery Kit)
# Assay type: biochemical
# setup-conditions: HDAC6 versus HDAC1
Numbers only, in fold.

[[record]]
compound = "O=C(N1CCN(c2ccccn2)CC1)N(Cc1cn2ccc(-c3nnc(C(F)F)o3)cc2n1)c1ccccc1 [Compound 4048]"
recorded_endpoint = "HDAC6 Selectivity (fold)"
unit_of_measure = "fold"
value_reported = 203

[[record]]
compound = "CS(=O)(=O)N1CCN(C(=O)N(Cc2cn3ccc(-c4nnc(C(F)F)o4)cc3n2)c2cccc(F)c2)CC1 [Compound 4097]"
recorded_endpoint = "HDAC6 Selectivity (fold)"
unit_of_measure = "fold"
value_reported = 335

[[record]]
compound = "CN(C)C(=O)N1CCC(C(=O)N(Cc2cn3ccc(-c4nnc(C(F)F)o4)cc3n2)c2cccc(F)c2)CC1 [Compound 4155]"
recorded_endpoint = "HDAC6 Selectivity (fold)"
unit_of_measure = "fold"
value_reported = 142


Kindly consider the entry below.
Inquiry: // HDAC6 Selectivity (fold) lookup, key: CC(=O)N1CCN(C(=O)N(Cc2cn3ccc(-c4nnc(C(F)F)o4)cc3n2)c2cccc(F)c2)CC1 [Compound 4092]
Reply text: 187

----------
Give measured HDAC6 Selectivity (fold) for each item. Keep answers brief.
# study-system: human recombinant HDAC6 (Homo sapiens, UniProt Q9UBN7)
# Construct: purchased Calbiochem Inc. 382180
# experimental-protocol: In vitro HDAC enzyme activity inhibition assay, HDAC6 (HDAC Fluorimetric Drug Discovery Kit)
# Type: biochemical
# setup-conditions: HDAC6 versus HDAC1
Answers are plain numbers, in fold.

[[record]]
smi = "O=C(C1COC1)N1CCN(C(=O)N(Cc2cn3ccc(-c4nnc(C(F)F)o4)cc3n2)c2cccc(F)c2)CC1"
unit_of_measure = "fold"
value_reported = 249

[[record]]
smi = "O=C(CO)N1CCC(C(=O)N(Cc2cn3ccc(-c4nnc(C(F)F)o4)cc3n2)c2ccccc2)CC1"
unit_of_measure = "fold"
value_reported = 147

[[record]]
smi = "Fc1ccc(OCc2cn3ccc(-c4nnc(C(F)F)o4)cc3n2)cc1F"
unit_of_measure = "fold"
value_reported = 174

[[record]]
smi = "FC(F)c1nnc(-c2ccn3cc(Cc4ccccc4)nc3c2)o1"
unit_of_measure = "fold"
value_reported = 631

[[record]]
smi = "O=C(C1CCN(C2CCOCC2)CC1)N(Cc1cn2ccc(-c3nnc(C(F)F)o3)cc2n1)c1ccccc1"
unit_of_measure = "fold"
value_reported = 98

[[record]]
smi = "O=C(C1CCN(C2CC3(COC3)C2)CC1)N(Cc1cn2ccc(-c3nnc(C(F)F)o3)cc2n1)c1cccc(F)c1"
unit_of_measure = "fold"
value_reported = 253


Inquiry: Item under review: O=C(CO)N1CCN(C(=O)N(Cc2cn3ccc(-c4nnc(C(F)F)o4)cc3n2)c2ccccc2)CC1 . Reported HDAC6 Selectivity (fold)?
Reply text: 197

----------
# study-system: human recombinant HDAC6 (Homo sapiens)
# Construct: purchased Calbiochem Inc. 382180
# experimental-protocol: In vitro HDAC enzyme activity inhibition assay, HDAC6 (HDAC Fluorimetric Drug Discovery Kit)
# Format: biochemical
# setup-conditions: HDAC6 versus HDAC1
Kindly state HDAC6 Selectivity (fold) for each of the entries shown.
Give bare numbers, in fold.

Known HDAC6 Selectivity (fold) results, listed for orientation:
[[record]]
compound = "CC(CO)N1CCN(C(=O)N(Cc2cn3ccc(-c4nnc(C(F)F)o4)cc3n2)c2ccccc2)CC1 (centres unmarked) [Compound 4035]"
study_system = "human recombinant HDAC6 (Homo sapiens)"
value_reported = 168

[[record]]
compound = "Cc1cccc(NCc2cn3ccc(-c4nnc(C(F)F)o4)cc3n2)c1 [Compound 3679]"
study_system = "human recombinant HDAC6 (Homo sapiens)"
value_reported = 341

[[record]]
compound = "CS(=O)(=O)c1ccc(NCc2cn3ccc(-c4nnc(C(F)F)o4)cc3n2)cc1 [Compound 3674]"
study_system = "human recombinant HDAC6 (Homo sapiens)"
value_reported = 128

[[record]]
compound = "O=C(C1CCN(C2CCC(F)(F)CC2)CC1)N(Cc1cn2ccc(-c3nnc(C(F)F)o3)cc2n1)c1cccc(F)c1 [Compound 4145]"
study_system = "human recombinant HDAC6 (Homo sapiens)"
value_reported = 217

[[record]]
compound = "FC(F)c1nnc(-c2ccn3cc(CNc4ccccc4)nc3c2)o1 [Compound 3668]"
study_system = "human recombinant HDAC6 (Homo sapiens)"
value_reported = 299

[[record]]
compound = "COC(=O)N1CC(C(=O)N(Cc2cn3ccc(-c4nnc(C(F)F)o4)cc3n2)c2cccc(F)c2)C1 [Compound 4204]"
study_system = "human recombinant HDAC6 (Homo sapiens)"
value_reported = 268

[[record]]
compound = "COc1ccc(Cc2cn3ccc(-c4nnc(C(F)F)o4)cc3n2)cc1 [Compound 3590]"
study_system = "human recombinant HDAC6 (Homo sapiens)"
value_reported = 116


Query compound follows.
Inquiry: I have this compound here, O=C(C1CCN(c2ccccn2)CC1)N(Cc1cn2ccc(-c3nnc(C(F)F)o3)cc2n1)c1cccc(F)c1 [Compound 4156] , and I need its recorded HDAC6 Selectivity (fold).
Reply text: 359

----------
# study-system: human recombinant HDAC6 (Homo sapiens)
# Sequence (Q9UBN7 1-1215): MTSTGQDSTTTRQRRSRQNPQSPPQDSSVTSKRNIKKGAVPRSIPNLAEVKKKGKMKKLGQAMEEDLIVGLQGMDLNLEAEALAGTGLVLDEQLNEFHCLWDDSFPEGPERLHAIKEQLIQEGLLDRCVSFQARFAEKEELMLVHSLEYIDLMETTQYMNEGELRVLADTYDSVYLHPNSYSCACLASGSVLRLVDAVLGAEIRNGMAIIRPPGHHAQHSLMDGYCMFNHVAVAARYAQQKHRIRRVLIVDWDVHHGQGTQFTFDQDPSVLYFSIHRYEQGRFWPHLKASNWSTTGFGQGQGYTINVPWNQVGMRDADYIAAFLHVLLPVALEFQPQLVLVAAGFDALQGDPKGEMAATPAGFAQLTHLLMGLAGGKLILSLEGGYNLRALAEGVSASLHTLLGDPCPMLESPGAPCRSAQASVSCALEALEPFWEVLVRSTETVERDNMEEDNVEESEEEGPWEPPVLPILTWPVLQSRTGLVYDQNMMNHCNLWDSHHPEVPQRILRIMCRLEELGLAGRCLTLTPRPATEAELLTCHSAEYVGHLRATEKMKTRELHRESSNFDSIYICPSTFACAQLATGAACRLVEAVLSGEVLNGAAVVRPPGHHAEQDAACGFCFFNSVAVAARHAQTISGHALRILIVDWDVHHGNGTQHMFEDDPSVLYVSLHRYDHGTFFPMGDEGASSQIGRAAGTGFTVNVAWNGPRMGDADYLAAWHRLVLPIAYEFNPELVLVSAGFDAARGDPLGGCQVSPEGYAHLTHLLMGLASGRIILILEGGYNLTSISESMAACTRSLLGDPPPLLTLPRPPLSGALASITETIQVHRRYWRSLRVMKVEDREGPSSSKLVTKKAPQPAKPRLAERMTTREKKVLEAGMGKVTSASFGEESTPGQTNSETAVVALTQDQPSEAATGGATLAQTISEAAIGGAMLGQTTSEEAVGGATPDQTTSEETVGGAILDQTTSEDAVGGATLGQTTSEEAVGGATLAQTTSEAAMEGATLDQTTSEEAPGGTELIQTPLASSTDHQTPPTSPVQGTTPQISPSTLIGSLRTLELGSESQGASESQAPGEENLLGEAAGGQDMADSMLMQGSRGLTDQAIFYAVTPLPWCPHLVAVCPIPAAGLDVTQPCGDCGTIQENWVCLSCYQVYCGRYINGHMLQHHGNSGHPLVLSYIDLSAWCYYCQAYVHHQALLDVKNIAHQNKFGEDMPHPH
# experimental-protocol: In vitro HDAC enzyme activity inhibition assay, HDAC6 (HDAC Fluorimetric Drug Discovery Kit)
# setup-conditions: human recombinant HDAC6, same protocol as the HDAC1 test
# Method: In order to confirm the selectivity of the compounds represented by Chemical Formula I of the present invention to HDAC6 through HDAC1 and HDAC6 enzyme activity inhibition experiments, a comparison experiment was performed using the material that has already been developed as a control group. HDAC enzyme activity was measured using the HDAC Fluorimetric Drug Discovery Kit (Enzo Life Sciences, Inc., BML-AK511, 516). […]
Simple rule here: IC50 less than 300 nM is label 1, otherwise label 0.

[[record]]
smi = "CN1CCN(C(=O)N(Cc2cn3ccc(-c4nnc(C(F)F)o4)cc3n2)c2ccccc2)CC1"
group_label = "label 1"

[[record]]
smi = "CS(=O)(=O)N1CCC(C(=O)N(Cc2cn3ccc(-c4nnc(C(F)F)o4)cc3n2)c2ccccc2)CC1"
group_label = "label 0"


Inquiry: I wonder whether O=C(N1CCN(C2CC3(COC3)C2)CC1)N(Cc1cn2ccc(-c3nnc(C(F)F)o3)cc2n1)c1cccc(F)c1 has IC50 below 300 nM. Can you tell?
Reply text: label 1

Inquiry: Please check: IC50 for O=C(C1CCC1)N1CCN(C(=O)N(Cc2cn3ccc(-c4nnc(C(F)F)o4)cc3n2)c2ccccc2)CC1 , strictly under 300 nM or not?
Reply text: label 1

Inquiry: Please indicate whether the reported IC50 of O=C(C1COC1)N1CCN(C(=O)N(Cc2cn3ccc(-c4nnc(C(F)F)o4)cc3n2)c2cccc(F)c2)CC1 is strictly below 300 nM.
Reply text: label 1

Ref: patent US12522601B2
